test system: NX4-NS20-NX1 (X-NS20-X) (designed (from TALE PthXo1)); assay: BLI; conditions: 10 mM MgCl2; stated weak interactions, Kd > ~700 nM; BLI: 25 mM Tris (pH 7 for NS20, pH 8 for NS14), 150 mM NaCl, 10 mM MgCl2, 0.5% BSA, 0.5% Tween-20, 25 C; EMSA: 1% agarose, 1x TAE, 110 V
QUANTITY KIND: Kd

Query: For the sequence AAAAAAATCAGACCGACATCTAATCCGCAACGA (double strand) [X-NS20-X random] , report Kd.
Reply: > 700 nM

---

test system: NX4-NS20-NX1 (X-NS20-X) (designed (from TALE PthXo1)); assay: BLI; conditions: BLI: 25 mM Tris (pH 7 for NS20, pH 8 for NS14), 150 mM NaCl, 10 mM MgCl2, 0.5% BSA, 0.5% Tween-20, 25 C; EMSA: 1% agarose, 1x TAE, 110 V
QUANTITY KIND: Kd (nM)
Give a bare numeral; the unit nM is implied.

Query: For the sequence AAAAAAATCTAGCAACCTCAAACAGACACCAGA (double strand) [X-NS20-X target] , report Kd.
Reply: 45
